Reported values of interaction score for individual entries
tgt: T1, 4H477-bN
T1 chain: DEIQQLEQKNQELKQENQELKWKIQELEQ
measurement.notes: two-hybrid library CCNG1;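 also: natural log of median RNA to DNA barcode read ratio; higher means stronger binding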

Worked set:
DKIQQLKQKNQELKQKNQELEWEIQELEQ [4H3057-bN]; -2.69
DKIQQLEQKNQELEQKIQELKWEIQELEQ [4H2473-bN]; -0.81
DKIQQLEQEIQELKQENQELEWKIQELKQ [4H2134-bN]; 0.581
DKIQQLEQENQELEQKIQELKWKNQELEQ [4H2223-bN]; -1.55

interaction score in this record for DENQQLEQKIQELKQKNQELKWKIQELKQ [4H1406-bN] : -2.09

Measured interaction score, DEIQQLEQKNQELKQENQELKWKIQELEQ [4H477-bN] : -1.14

GET /value?item= DKIQQLKQEIQELEQENQELKWENQELKQ [4H2588-bN] &field=interaction score returns -1.95

Data origin, for the record: paper PMC10397247
